Source: patent US20240391937A1

target: PARP-1 enzyme (Homo sapiens, UniProt P09874); construct: purchased BPS Bioscience; test: PARP-1 enzyme activity test (BPS Bioscience chemiluminescence kit); format: biochemical; conditions: values in text; read-out: IC50 values on PARP-1
Sequence (P09874 whole entry): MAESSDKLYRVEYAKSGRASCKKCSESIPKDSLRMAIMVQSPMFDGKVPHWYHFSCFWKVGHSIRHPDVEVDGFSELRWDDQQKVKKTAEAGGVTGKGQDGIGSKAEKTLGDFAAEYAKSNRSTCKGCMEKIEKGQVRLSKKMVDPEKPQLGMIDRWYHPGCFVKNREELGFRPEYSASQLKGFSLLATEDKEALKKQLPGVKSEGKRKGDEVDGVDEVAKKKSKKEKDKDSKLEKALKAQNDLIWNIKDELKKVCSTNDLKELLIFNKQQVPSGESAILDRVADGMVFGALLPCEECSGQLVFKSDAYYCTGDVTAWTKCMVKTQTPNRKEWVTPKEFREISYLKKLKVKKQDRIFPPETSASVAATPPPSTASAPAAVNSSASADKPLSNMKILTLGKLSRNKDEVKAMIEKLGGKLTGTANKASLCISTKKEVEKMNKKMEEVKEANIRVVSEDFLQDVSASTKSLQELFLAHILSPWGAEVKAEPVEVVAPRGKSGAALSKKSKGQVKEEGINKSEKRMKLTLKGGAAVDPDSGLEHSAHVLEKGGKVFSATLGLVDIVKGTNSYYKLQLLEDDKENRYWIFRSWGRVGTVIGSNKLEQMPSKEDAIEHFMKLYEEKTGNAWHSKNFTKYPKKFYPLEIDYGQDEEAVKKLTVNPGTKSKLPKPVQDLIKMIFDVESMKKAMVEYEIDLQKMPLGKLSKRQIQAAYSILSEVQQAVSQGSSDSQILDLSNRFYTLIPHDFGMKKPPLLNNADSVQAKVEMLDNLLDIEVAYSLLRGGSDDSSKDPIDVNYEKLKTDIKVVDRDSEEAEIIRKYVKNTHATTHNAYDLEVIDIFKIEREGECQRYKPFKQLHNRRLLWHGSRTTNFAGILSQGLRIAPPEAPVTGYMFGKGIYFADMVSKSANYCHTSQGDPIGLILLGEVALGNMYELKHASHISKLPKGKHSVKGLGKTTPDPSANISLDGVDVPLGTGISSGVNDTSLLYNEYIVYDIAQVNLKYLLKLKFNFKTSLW
property measured: IC50
Report field: quantity (unit follows the number).

Kindly give each listed record's IC50.
1. Cn1cc(NC(=O)c2ccc(N3CCN(Cc4cnc5cc(C6CC6)c(=O)[nH]c5c4)CC3)cn2)cn1 [Compound 6]
2. CNC(=O)c1ccc(N2CCN(Cc3cnc4cc(C5CC5)c(=O)[nH]c4c3)CC2)cn1 [Compound 2]
3. O=c1[nH]c2cc(CN3CCN(c4cn5cc(C(F)(F)F)nc5cn4)CC3)cnc2cc1C1CC1 [Compound 8]
4. O=C(NC1CC1)c1ccc(N2CCN(Cc3cnc4cc(C5CC5)c(=O)[nH]c4c3)CC2)cn1 [Compound 5]
5. O=C(NC1CC1)c1ccc(C2=CCN(Cc3cnc4cc(C5CC5)c(=O)[nH]c4c3)CC2)cn1 [Compound 3]

1. 0.54 nM
2. 0.9 nM
3. 1.2 nM
4. 0.74 nM
5. 0.6 nM
